system: human neutrophils; experiment: Human neutrophil migration assay; assay type: cell-based; conditions: Homo sapiens, Neutrophil; embelin at EC80 as chemotactic agent; 1 h at 37° C.; read-out: Human neutrophil migration IC50
pIC50: −log10 of the molar value.
readout-type: pIC50

Cc1c2n(c(OC[C@@H]3COCCO3)cc1=O)CCc1cc(OCCOC(F)(F)F)ccc1-2	7.00 to 11.00

Value lookup for pIC50; key = `CCOC(=O)N1CC=C(c2ccc3c(c2)CCn2c(OC[C@@H]4COCCO4)cc(=O)c(C)c2-3)CC1`
7.00 to 11.00

Consider the compound Cc1c2n(c(NCC3CCCO3)cc1=O)CCc1cc(OCC(F)(F)F)ccc1-2 (stereo not shown) and give its measured pIC50.
7.00 to 11.00

Which measured pIC50 value corresponds to COc1ccc2c(c1OC)CCn1c(NCC3CCCO3)cc(=O)cc1-2 (stereo not shown) ?
< 6.00

What pIC50 value was documented for this compound, `Cc1ccc(COc2ccc3c(c2)CCn2c(OC[C@@H]4COCCO4)cc(=O)c(C)c2-3)cn1` ?
7.00 to 11.00

Tell me the measured pIC50 of Cc1noc(COc2ccc3c(c2)CCn2c(OCC4CCCO4)cc(=O)c(C)c2-3)n1 (stereo not shown) , please.
7.00 to 11.00

What value of pIC50 has been reported for the following compound? `Cc1c2n(c(OC[C@@H]3COCCO3)cc1=O)CCc1cc(OCC(F)(F)F)ccc1-2`
7.00 to 11.00

// lookup pIC50 for `Cc1c2n(c(OC[C@@H]3COCCO3)cc1=O)CCc1cc(C3=CCN(C(=O)OC(C)C)CC3)ccc1-2`
7.00 to 11.00

Consider the compound shown here: COc1ccc2c(c1OC)CCn1c(OCC3CCCCO3)cc(=O)c(C)c1-2 (stereo not shown) What is its recorded pIC50?
7.00 to 11.00

----------
target: GPR84 (Homo sapiens)
Form field: IC50 (one value per entry).

Tell me reported IC50 for COc1cc2c(cc1OC)-c1cc(=O)cc(NCC3CCCO3)n1CC2 (stereo not drawn) [Compound 4] , tested with GPR84 (Homo sapiens).
> 1000 nM

Reported IC50 for GPR84 (Homo sapiens), given Cc1c2n(c(OC[C@@H]3COCCO3)cc1=O)CCc1cc(OC3CN(C(=O)NC(C)C)C3)ccc1-2 [Compound 151] ?
500 to 1000 nM

Lookup: IC50 / GPR84 (Homo sapiens) / Cc1c2n(c(OCC3CCCCO3)cc1=O)CCc1cc(OCc3ccccn3)ccc1-2 (stereo not drawn) [Compound 46]
0.01 to 100 nM

----------
system: human neutrophils; assay: Human neutrophil migration assay; type: cell-based; settings: Homo sapiens, Neutrophil; embelin at EC80 as chemotactic agent; 1 h at 37° C.; read-out: Human neutrophil migration IC50
pIC50: −log10 of the molar value.
Listing of recorded pIC50 by entry.

Consider the following illustrative entries.
CCc1c2n(c(NCC3CCCO3)cc1=O)CCc1cc(OCC(F)(F)F)ccc1-2 (stereo not shown) [Compound 27]	6.30 to 7.00
Cc1c2n(c(OCC3CCCCO3)cc1=O)CCc1cc(OCC3CCCOC3)ccc1-2 (stereo not shown) [Compound 48]	7.00 to 11.00
Cc1c2n(c(OC[C@@H]3COCCO3)cc1=O)CCc1cc(N3CC(F)(F)C3)ccc1-2 [Compound 86]	7.00 to 11.00

Turning now to a further record.
For the compound Cc1c2n(c(NCC3CCCO3)cc1=O)CCc1cc(OC3CCCO3)ccc1-2 (stereo not shown) [Compound 9] , what pIC50 is on record?
6.30 to 7.00

----------
molecular target: GPR84 (Homo sapiens, UniProt Q9NQS5)
Sequence (Q9NQS5 whole entry): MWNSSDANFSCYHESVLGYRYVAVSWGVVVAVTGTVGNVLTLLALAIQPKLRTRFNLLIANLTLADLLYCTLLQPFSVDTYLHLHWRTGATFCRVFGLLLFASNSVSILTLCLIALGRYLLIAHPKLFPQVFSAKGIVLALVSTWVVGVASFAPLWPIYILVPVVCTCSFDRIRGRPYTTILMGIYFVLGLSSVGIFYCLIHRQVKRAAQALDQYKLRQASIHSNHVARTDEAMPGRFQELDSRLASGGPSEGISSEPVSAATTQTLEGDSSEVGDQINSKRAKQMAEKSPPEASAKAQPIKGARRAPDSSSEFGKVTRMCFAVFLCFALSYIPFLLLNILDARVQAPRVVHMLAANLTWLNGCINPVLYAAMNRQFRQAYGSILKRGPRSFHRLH
readout-type: IC50

Solved entries:
Cc1c2n(c(OC[C@@H]3COCCO3)cc1=O)CCc1cc(OCC(F)(F)F)ccc1-2 [Compound 18]	0.01 to 100 nM
CCOC(=O)N1CC(c2ccc3c(c2)CCn2c(OC[C@@H]4COCCO4)cc(=O)c(C)c2-3)C1 [Compound 147]	0.01 to 100 nM

Can you look up IC50 on GPR84 (Homo sapiens, UniProt Q9NQS5) for Cc1c2n(c(OC[C@@H]3COCCO3)cc1=O)CCc1cc(OC[C@@H]3COCCO3)ccc1-2 [Compound 62] ?
0.01 to 100 nM

For the record Cc1c2n(c(OC[C@@H]3COCCO3)cc1=O)CCc1cc(N(C)CCC(F)(F)F)ccc1-2 [Compound 129] , what value of IC50 is listed for GPR84 (Homo sapiens, UniProt Q9NQS5)?
0.01 to 100 nM

Form field - read-out: IC50; system: GPR84 (Homo sapiens, UniProt Q9NQS5); submitted item: Cc1c2n(c(OC[C@@H]3COCCO3)cc1=O)CCc1cc(C3=CCOCC3)ccc1-2 [Compound 39]
100 to 500 nM

Which IC50 is reported with GPR84 (Homo sapiens, UniProt Q9NQS5) for this entry: CCc1c2n(c(NCC3CCCO3)cc1=O)CCc1cc(OCC(F)(F)F)ccc1-2 (stereo not drawn) [Compound 27] ?
500 to 1000 nM

What is its IC50 for GPR84 (Homo sapiens, UniProt Q9NQS5)? Entry: COc1ccc2c(c1O)CCn1c(NCC3COCCO3)cc(=O)cc1-2 (stereo not drawn) [Compound 22]
> 1000 nM

Under GPR84 (Homo sapiens, UniProt Q9NQS5): IC50 value of Cc1c2n(c(OCC3CCCO3)cc1=O)CCc1cc(OCC3CCCOC3)ccc1-2 (stereo not drawn) [Compound 47] ?
0.01 to 100 nM

Param readout= IC50; system= GPR84 (Homo sapiens, UniProt Q9NQS5); entry= Cc1c2n(c(OC[C@@H]3COCCO3)cc1=O)CCc1cc(C3CN(C(=O)C4CC4)C3)ccc1-2 [Compound 146] ; returns value.
500 to 1000 nM

IC50 of [2H]C([2H])(Oc1ccc2c(c1)CCn1c(OC[C@@H]3COCCO3)cc(=O)c(C)c1-2)C(F)(F)F [Compound 106] on GPR84 (Homo sapiens, UniProt Q9NQS5)?
0.01 to 100 nM

----------
IC50 values, listed per item
test system: human neutrophils; assay: Human neutrophil migration assay; format: cell-based; settings: Homo sapiens, Neutrophil; embelin at EC80 as chemotactic agent; 1 h at 37° C.; read-out: Human neutrophil migration IC50

Worked cases, IC50 given:
Cc1noc(COc2ccc3c(c2)CCn2c(OCC4CCCCO4)cc(=O)c(C)c2-3)n1 (stereo not drawn)	0.01 to 100 nM
COc1cc2c(cc1OC)-c1c(C)c(=O)cc(OC[C@@H]3COCCO3)n1CC2	100 to 500 nM
Cc1c2n(c(OC[C@@H]3COCCO3)cc1=O)CCc1cc(N3CCOCC3)ccc1-2	100 to 500 nM
Cc1c2n(c(OCC3COCCO3)cc1=O)CCc1cc(OCC(F)(F)F)ccc1-2 (stereo not drawn)	0.01 to 100 nM
Cc1c2n(c(OC[C@@H]3COCCO3)cc1=O)CCc1cc(N3CCC(F)(F)CC3)ccc1-2	0.01 to 100 nM

IC50 lookup needed for `COC(=O)N1CCC(c2ccc3c(c2)CCn2c(OC[C@@H]4COCCO4)cc(=O)c(C)c2-3)CC1` , thanks.
0.01 to 100 nM

Which value of IC50 has been reported for CCc1c2n(c(NCC3CCCO3)cc1=O)CCc1cc(OCC(F)F)ccc1-2 (stereo not drawn) in the records?
500 to 1000 nM

GET /values?readout=IC50&item= Cc1c2n(c(OCC3CCCO3)cc1=O)CCc1cc(OCc3ccccn3)ccc1-2 (stereo not drawn)
100 to 500 nM

Requested read-out: IC50. Entry: COc1ccc2c(c1OC)CCn1c(NCC3CCCCO3)cc(=O)c(C)c1-2 (stereo not drawn)
100 to 500 nM

----------
pIC50: −log10 of the molar value.
Let's go through some pIC50 measurements on UniProt:Q9NQS5 together.

# count of solved cases: 8
Cc1c2n(c(OC[C@@H]3COCCO3)cc1=O)CCc1cc(N3CCCC3=O)ccc1-2	6.00 to 6.30
COc1cc2c(cc1OC)-c1cc(=O)cc(NCC3COCCO3)n1CC2 (centres unmarked)	< 6.00
Cc1c2n(c(OCC3(C)CCCO3)cc1=O)CCc1cc(OCc3ccccc3)ccc1-2 (centres unmarked)	6.30 to 7.00
COc1ccc2c(c1OC)CCn1c(OCC3CCCO3)cc(=O)c(C)c1-2 (centres unmarked)	7.00 to 11.00
Cc1c2n(c(OC[C@@H]3COCCO3)cc1=O)CCc1cc(N3CCC(C)(C)C3)ccc1-2	7.00 to 11.00
Cc1c2n(c(OC[C@@H]3COCCO3)cc1=O)CCc1cc(N3CCCCC3C)ccc1-2 (some centres unmarked)	7.00 to 11.00
Cc1ccc(COc2ccc3c(c2)CCn2c(OCC4CCCCO4)cc(=O)c(C)c2-3)cn1 (centres unmarked)	7.00 to 11.00
COc1c(OCC(F)F)ccc2c1CCn1c(NCC3CCCO3)cc(=O)c(C)c1-2 (centres unmarked)	7.00 to 11.00

Short answer please: pIC50, UniProt:Q9NQS5, entry CCOC(=O)N1CCC(Oc2ccc3c(c2)CCn2c(OC[C@@H]4COCCO4)cc(=O)c(C)c2-3)C1 (some centres unmarked)
7.00 to 11.00

Query for UniProt:Q9NQS5: what pIC50 does the record show for Cc1ccc(COc2ccc3c(c2)CCn2c(OCC4CCCO4)cc(=O)c(C)c2-3)cn1 (centres unmarked) ?
7.00 to 11.00

Lab request: please report pIC50 under test system UniProt:Q9NQS5 for `Cc1c2n(c(OC[C@@H]3COCCO3)cc1=O)CCc1cc(OC3CCN(C(=O)OC(C)(C)C)CC3)ccc1-2`
7.00 to 11.00

Data provenance is patent US10568879B2.
